# Assay Explanation: Inhibition of rabbit muscle glycogen phosphorylase
# Set-up: species or system Oryctolagus cuniculus
Test Readout: IC50 (µM)
Lab book: enter the figure in µM, no units written.

The value of IC50 measured for the molecule CCCCCCCCC(=O)OCc1cn(CC(=O)O[C@H]2CC[C@]3(C)[C@H]4CC=C5[C@@H]6CC(C)(C)CC[C@]6(C(=O)O)CC[C@@]5(C)[C@]4(C)CC[C@H]3C2(C)C)nn1 turned out to be 5.4

Values from ChEMBL document CHEMBL4400557
